Cited source: patent US20250221953A1

Tested on: Jurkat T cells
Assay type: cell-based, human
Conditions: IL-2 production level in treated group compared to control group; 48 hours treatment, then anti-CD3/anti-CD28 12 hours
Measurement type: Relative changed percentage (%)

1) Cl.NCCCC[C@H](N)C(=O)O [L-Lysine hydrochloride]	−1.605
2) CC(C)[C@H](N)C(=O)O	5.296
3) CCCCC[C@H](O)CC(=O)CCc1ccc(O)c(OC)c1	42.62
4) O=C(/C=C/c1ccc(O)c(O)c1)OCCc1ccccc1	43.85
5) CC1=C(C/C=C(\C)CCC[C@H](C)CCC[C@H](C)CCCC(C)C)C(=O)c2ccccc2C1=O	10.13
6) O=S(=O)([O-])[O-].[Mn+2] [Manganese sulfate]	29.55
7) O=C([O-])CC(O)(CC(=O)[O-])C(=O)[O-].[Na+].[Na+].[Na+] [Sodium citrate]	13.84
8) C[N+](C)(C)CCO.[Cl-] [Choline Chloride]	−41.11
9) [Br-].[K+] [POTASSIUM BROMIDE]	78.36
10) O=C[C@H](O)[C@@H](O)[C@H](O)[C@H](O)C(=O)O	−45.8
11) C[C@]12CCC(=O)C[C@@H]1CC[C@@H]1[C@@H]2CC[C@]2(C)[C@@H](O)CC[C@@H]12 [5ALPHA-DIHYDROTESTOSTERONE (DIIT)/DIIT, 5ALPHA-DIHYDROTESTOSTERONE]	−3.457
12) [Br-].[Na+] [SODIUM BROMIDE]	−26.98
13) C=C1CC[C@H](O)C/C1=C/C=C1\CCC[C@]2(C)[C@@H]([C@H](C)CCCC(C)C)CC[C@@H]12	25.45
14) N[C@@H](CS)C(=O)O [L-Cysteine]	32.82
15) c1cncnc1	4.127
16) O=C(O)[C@@H]1CCCN1	−3.935
17) C[N+](C)(C)CC(=O)O	−18.83
18) CC(=O)[C@@]1(O)CC[C@H]2[C@@H]3CCC4=CC(=O)CC[C@]4(C)[C@H]3CC[C@@]21C [17A-HYDROXYPROGESTERONE]	41.36
19) CC(C)CCCC(C)CCCC(C)CCCC(C)CC(=O)O (stereo not shown)	−18.61

====

Test system: Jurkat T cells
Assay type: cell-based, human
Settings: IL-2 production level in treated group compared to control group; 48 hours treatment, then anti-CD3/anti-CD28 12 hours
Kind request: treat 30% as inclusive, so Relative changed percentage (%) at 30% or higher is 1, anything lower is -1.

1. Cl.NCCc1c[nH]c2ccc(O)cc12 [-HYDROXYTRYPTAMINE HYDROCHLORIDE]	-1
2. NCCc1c[nH]cn1 [HISTAMINE FREE BASE CRYSTALLINE, HISTAMINE FREE BASE]	-1
3. O=c1c(O)c(-c2ccc(O)c(O)c2)oc2cc(O)cc(O)c12	-1
4. [Cl][Cd][Cl] [CADMIUM CIILORIDE/cadmium, CADMIUM CIILORIDE]	1
5. [Cl-].[K+] [POTASSIUM CHLORIDE/potassium, POTASSIUM CHLORIDE]	1
6. c1ncc2[nH]cnc2n1	1
7. O=c1cc[nH]c(=O)[nH]1	-1
8. [Cl-].[Na+] [SODIUM CHLORIDE]	1
9. CCCC/C=C\CCCCCCCC(=O)O	-1
10. CC/C=C\C/C=C\C/C=C\C/C=C\C/C=C\C/C=C\CCC(=O)O	-1
11. O=C([O-])CC(O)(CC(=O)[O-])C(=O)[O-].[K+].[K+].[K+] [Potassium Citrate]	1
